Cited source for all entries: PubChem BioAssay

assay: RAM signaling pathway blockade in yeast – S. cerevisiae, Pdr1DBD-CYC8 efflux-inhibited sensitized strain, primary screen (AID 1298);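 note: 0% = DMSO untreated cells without growth and 100% = 10 µM 1-NA-PP1 full growth; higher means more yeast growth rescued from 5-FOA killing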; settings: S. cerevisiae cbk1-as DSE1-URA3 strain, 5-FOA growth OD615, 2 d; at 50 µM; active compounds read high
Endpoint name: RAM network inhibition (%)
Output spec: scalar in %, unitless text.

Consider the worked cases shown below.
CCOC(=O)C1=CSC2=NS(=O)(=O)CCN12 :: -0.32
Nc1ccc(O)c(-c2nc3ccccc3s2)c1 :: 1.92
Cn1cnnc1SCc1ccc(C(=O)O)cc1 :: 1.81

Task item: Any idea what RAM network inhibition was measured for "CCOC(=O)c1cnc2c(C#N)c(C)nn2c1-c1ccccc1" ?
Reply: 3.66

Task item: Any idea what RAM network inhibition was measured for "Cc1ccc(S(=O)(=O)N2CCN(C(=O)CN3CCCC3)C2)cc1" ?
Reply: 8.99

Task item: Any idea what RAM network inhibition was measured for CCSc1nnc(NC(=O)CSc2nc3c(c(=O)n2CCOC)SC(C)C3)s1 (stereo unspecified) ?
Reply: 7.38
